Listed below are compounds with Ki for PKA (Homo sapiens, UniProt P17612), each taken from published literature.

// below: answered compounds
Cc1n[nH]c2ccc(NC(=O)C(CCN)c3ccc(Cl)c(Cl)c3O)cc12 (stereo not shown); < 1000 nM
NCCC(C(=O)Nc1ccc2[nH]nc(N)c2c1)c1ccc(Cl)c(Cl)c1 (stereo not shown); < 1000 nM
O=C(Cc1cccc(S(=O)(=O)N2CCOCC2)c1)Nc1nc(-c2c[nH]c3nccc(F)c23)cs1; 500 to 5000 nM
O=C(Cc1ccc(F)cc1F)Nc1nc(-c2c[nH]c3ncccc23)cs1; < 500 nM
Cc1n[nH]c2ccc(NC(=O)C(CCN)c3ccc(Cl)s3)cc12 (stereo not shown); < 1000 nM
CC(C)CCc1ncnc2[nH]ccc12; 500 to 5000 nM

Incoming: // query Ki value for entry CS(=O)(=O)Nc1cccc(CC(=O)Nc2nc(-c3c[nH]c4ncc(Br)cc34)cs2)c1
Outgoing: 500 to 5000 nM

Incoming: // query Ki value for entry Cc1cccc(C(CCN)C(=O)Nc2ccc3[nH]nc(C)c3c2)c1 (stereo not shown)
Outgoing: < 1000 nM

Incoming: // query Ki value for entry CN1CCN(CCCOc2cccc(CC(=O)N(c3nc(-c4c[nH]c5ncccc45)cs3)C3CC3)c2)CC1
Outgoing: 500 to 5000 nM

Incoming: // query Ki value for entry COC(=O)c1cccc(-c2n[nH]c3ccc(NC(=O)C(CCN)c4ccccc4)cc23)c1 (stereo not shown)
Outgoing: < 1000 nM

Incoming: // query Ki value for entry C#Cc1n[nH]c2ccc(NC(=O)C(CCN)c3ccc(Cl)c(Cl)c3)cc12 (stereo not shown)
Outgoing: < 1000 nM

Incoming: // query Ki value for entry CS(=O)(=O)Nc1cccc(CC(=O)Nc2csc(-c3c[nH]c4ncccc34)n2)c1
Outgoing: < 500 nM

---

Listed below are compounds with Ki for UniProt:P17612, each taken from published literature.

O=C(Cc1cccc(S(=O)(=O)N2CCCCC2)c1)Nc1nc(-c2c[nH]c3ncccc23)cs1; 500 to 5000 nM

Incoming: // query Ki value for entry O=C(Nc1nc(-c2c[nH]c3ncccc23)cs1)N1CCOCC1
Outgoing: 500 to 5000 nM

Incoming: // query Ki value for entry COC(=O)C(C)Cc1ncnc2[nH]ccc12 (centres unmarked)
Outgoing: 500 to 5000 nM

Incoming: // query Ki value for entry NCC[C@H](C(=O)Nc1ccc2[nH]nc(NC(=O)c3cccs3)c2c1)c1ccccc1
Outgoing: < 1000 nM

Incoming: // query Ki value for entry O=C(CCS(=O)(=O)c1ccccc1)Nc1nc(-c2c[nH]c3ncc(Br)cc23)cs1
Outgoing: < 500 nM

---

pKi: −log10 of the molar value.
Listed below are compounds with pKi for PKA (Homo sapiens), each taken from published literature.

// below: answered compounds
Cc1n[nH]c2ccc(NC(=O)C(CCN)c3cccc(Cl)n3)cc12 (centres unmarked); > 6.00
NCCNC(C(=O)Nc1ccc2[nH]ncc2c1)c1ccc(Cl)c(Cl)c1 (centres unmarked); > 6.00
O=C(Nc1ccc2[nH]ncc2c1)C(CO)c1ccccc1 (centres unmarked); 5.30 to 6.00
Clc1ccc(/C=C/c2ncnc3[nH]ccc23)cc1; 5.30 to 6.30

Incoming: // query pKi value for entry CS(=O)(=O)Nc1cccc(C(O)C(=O)Nc2nc(-c3c[nH]c4ncccc34)cs2)c1 (centres unmarked)
Outgoing: > 6.30

Incoming: // query pKi value for entry C[C@@H](CO)NC(=O)c1nc(-c2c[nH]c3ncccc23)cs1
Outgoing: 5.30 to 6.30

Incoming: // query pKi value for entry CCc1n[nH]c2ccc(NC(=O)C(CCN)c3ccc(Cl)c(Cl)c3)cc12 (centres unmarked)
Outgoing: > 6.00

Incoming: // query pKi value for entry CNCC(=O)Nc1nc(-c2c[nH]c3ncccc23)cs1
Outgoing: > 6.30

Incoming: // query pKi value for entry O=C(Cc1ccc(OCCCN2CCNCC2)cc1Cl)Nc1nc(-c2c[nH]c3ncccc23)cs1
Outgoing: 5.30 to 6.30

Incoming: // query pKi value for entry NCCC(C(=O)Nc1ccc2[nH]nc(NC(=O)c3ccc(Cl)cc3)c2c1)c1ccc(Cl)c(Cl)c1 (centres unmarked)
Outgoing: > 6.00

Incoming: // query pKi value for entry CS(=O)(=O)Nc1cccc(CC(=O)Nc2ccc(-c3c[nH]c4ncccc34)s2)c1
Outgoing: > 6.30

Incoming: // query pKi value for entry CN1CCN(CCOc2cccc(CC(=O)N(c3nc(-c4c[nH]c5ncccc45)cs3)C3CC3)c2)CC1
Outgoing: 5.30 to 6.30

Incoming: // query pKi value for entry NCCC(C(=O)Nc1ccc2[nH]nc(NC(=O)c3cccc(CN)c3)c2c1)c1ccc(Cl)c(Cl)c1 (centres unmarked)
Outgoing: > 6.00

Incoming: // query pKi value for entry NCCC(C(=O)Nc1ccc2[nH]nc(-c3ccc(-c4nn[nH]n4)cc3)c2c1)c1ccccc1 (centres unmarked)
Outgoing: > 6.00
